# runDescription: Size, polydispersity index and surface charge of mRNA-LNP (Malvern Zetasizer Nano ZS90)
# Assay type: physicochemical
# assaySetup: mRNA-LNP made with the ionizable lipid at its optimal formulation (Table 2); diluted with PBS to 1 μg/mL mRNA
observable: size (nm) Number
Express it in nm; write the number only.

Consider the reported size (nm) Number for these compounds:
{"columns": ["compound", "measureUnit", "size (nm) Number"],
 "data": [
  ["CCCCCCCCCCCOC(=O)CCCCCN(CCCCCCCC(=O)OC(CCCCCCCC)CCCCCCCC)CC(O)CCCCNC(=O)c1cnc(O)n1C (stereo not drawn)", "nm", 107],
  ["CCCCCCCCCCCOC(=O)CCCCCN(CCCCCCCC(=O)OC(CCCCCCCC)CCCCCCCC)CC(O)CCCCNC(=O)c1ccn(C)c1 (stereo not drawn)", "nm", 185],
  ["CCCCC/C=C\\C/C=C\\CCCCCCCCC(CCCCCCCC/C=C\\C/C=C\\CCCCC)OC(=O)CCCN(C)C [MC3, DLin-MC3-DMA, reference compound]", "nm", 93]
]}

Value lookup for size (nm) Number; key = CCCCCCCCCCCOC(=O)CCCCCN(CCCCCCCC(=O)OC(CCCCCCCC)CCCCCCCC)CC(O)CCCCNC(=O)c1cc[nH]c1 (stereo not drawn)
151

Value lookup for size (nm) Number; key = CCCCCCCCCCCOC(=O)CCCCCN(CCO)CCCCCCCC(=O)OC(CCCCCCCC)CCCCCCCC [SM-102, reference compound]
101

Value lookup for size (nm) Number; key = CCCCCCCCCCCOC(=O)CCCCCN(CCCCCCCC(=O)OC(CCCCCCCC)CCCCCCCC)CC(O)CCCCNC(=O)c1cccn1C (stereo not drawn)
125

Value lookup for size (nm) Number; key = CCCCCCCCCCCOC(=O)CCCCCN(CCCCCCCC(=O)OC(CCCCCCCC)CCCCCCCC)CC(O)CCCCNC(=O)c1c[nH]c(O)n1 (stereo not drawn)
123

Value lookup for size (nm) Number; key = CCCCCCCCCCCOC(=O)CCCCCN(CCCCCCCC(=O)OC(CCCCCCCC)CCCCCCCC)CC(O)CCCCNC(=O)c1[nH]ccc1O (stereo not drawn)
112

Value lookup for size (nm) Number; key = CCCCCCCCCCCOC(=O)CCCCCN(CCCCCCCC(=O)OC(CCCCCCCC)CCCCCCCC)CC(O)CCCCNC(=O)c1c[nH]cn1 (stereo not drawn)
117

----------
# Tested on: CCL3 mRNA level in HEK-293T cells
# assaySetup: human
Could you mark each record true if its CCL3 Average falls strictly under 2, and false if it equals or exceeds it?

Solved entries (count: 3):
{"columns": ["molecule", "group"],
 "data": [
  ["CCCCCCCCCCCOC(=O)CCCCCN(CCCCCCCC(=O)OC(CCCCCCCC)CCCCCCCC)CC(O)CCCCNC(=O)c1cc[nH]c1 (stereo not shown)", "true"],
  ["CCCCCCCCCCCOC(=O)CCCCCN(CCCCCCCC(=O)OC(CCCCCCCC)CCCCCCCC)CC(O)CCCCNC(=O)c1c[nH]c(O)n1 (stereo not shown)", "false"],
  ["CCCCCCCCCCCOC(=O)CCCCCN(CCCCCCCC(=O)OC(CCCCCCCC)CCCCCCCC)CC(O)CCCCNC(=O)c1nccn1C (stereo not shown)", "false"]
]}

Input CCCCCCCCCCCOC(=O)CCCCCN(CCCCCCCC(=O)OC(CCCCCCCC)CCCCCCCC)CC(O)CCCCNC(=O)c1ccc[nH]1 (stereo not shown) ; condition: CCL3 Average strictly below 2. Does it hold?
false

Input CCCCCCCCCCCOC(=O)CCCCCN(CCCCCCCC(=O)OC(CCCCCCCC)CCCCCCCC)CC(O)CCCCNC(=O)c1c(O)ccn1C (stereo not shown) ; condition: CCL3 Average strictly below 2. Does it hold?
true

Input CCCCCCCCCCCOC(=O)CCCCCN(CCCCCCCC(=O)OC(CCCCCCCC)CCCCCCCC)CC(O)CCCCNC(=O)c1ccn(C)c1 (stereo not shown) ; condition: CCL3 Average strictly below 2. Does it hold?
true

Input CCCCCCCCCCCOC(=O)CCCCCN(CCCCCCCC(=O)OC(CCCCCCCC)CCCCCCCC)CC(O)CCCCNC(=O)c1[nH]ccc1O (stereo not shown) ; condition: CCL3 Average strictly below 2. Does it hold?
true

----------
# runDescription: Stability of mRNA-LNPs according to storage temperature and duration
# Format: physicochemical
# assaySetup: fLuc mRNA-LNP stored at 25° C., day 30
observable: PDI D-30
Enter a number only.

Consider the reported PDI D-30 for these compounds:
{"columns": ["compound", "val"],
 "data": [
  ["CCCCCCCCCCCOC(=O)CCCCCN(CCCCCCCC(=O)OC(CCCCCCCC)CCCCCCCC)CC(O)CCCCNC(=O)c1ccc[nH]1 (stereo not drawn) [Compound 16]", 0.093],
  ["CCCCCCCCCCCOC(=O)CCCCCN(CCCCCCCC(=O)OC(CCCCCCCC)CCCCCCCC)CC(O)CCCCNC(=O)c1c[nH]cn1 (stereo not drawn) [Compound 34]", 0.132],
  ["CCCCCCCCCCCOC(=O)CCCCCN(CCCCCCCC(=O)OC(CCCCCCCC)CCCCCCCC)CC(O)CCCCNC(=O)c1cc[nH]c1 (stereo not drawn) [Compound 17]", 0.128]
]}

Value lookup for PDI D-30; key = CCCCC/C=C\C/C=C\CCCCCCCCC(CCCCCCCC/C=C\C/C=C\CCCCC)OC(=O)CCCN(C)C [MC3, DLin-MC3-DMA, reference compound]
0.123

Value lookup for PDI D-30; key = CCCCCCCCCCCOC(=O)CCCCCN(CCCCCCCC(=O)OC(CCCCCCCC)CCCCCCCC)CC(O)CCCCNC(=O)c1nccn1C (stereo not drawn) [Compound 36]
0.092

Value lookup for PDI D-30; key = CCCCCCCCCCCOC(=O)CCCCCN(CCCCCCCC(=O)OC(CCCCCCCC)CCCCCCCC)CC(O)CCCCNC(=O)c1c[nH]c(O)n1 (stereo not drawn) [Compound 35]
0.076

Value lookup for PDI D-30; key = CCCCCCCCCCCOC(=O)CCCCCN(CCCCCCCC(=O)OC(CCCCCCCC)CCCCCCCC)CC(O)CCCCNC(=O)c1cn(C)cn1 (stereo not drawn) [Compound 37]
0.126

Value lookup for PDI D-30; key = CCCCCCCCCCCOC(=O)CCCCCN(CCCCCCCC(=O)OC(CCCCCCCC)CCCCCCCC)CC(O)CCCCNC(=O)c1ccn(C)c1 (stereo not drawn) [Compound 19]
0.159

Value lookup for PDI D-30; key = CCCCCCCCCCCOC(=O)CCCCCN(CCCCCCCC(=O)OC(CCCCCCCC)CCCCCCCC)CC(O)CCCCNC(=O)c1cccn1C (stereo not drawn) [Compound 18]
0.125

Value lookup for PDI D-30; key = CCCCCCCCCCCOC(=O)CCCCCN(CCCCCCCC(=O)OC(CCCCCCCC)CCCCCCCC)CC(O)CCCCNC(=O)c1cnc(O)n1C (stereo not drawn) [Compound 40]
0.091

Value lookup for PDI D-30; key = CCCCCCCCCCCOC(=O)CCCCCN(CCCCCCCC(=O)OC(CCCCCCCC)CCCCCCCC)CC(O)CCCCNC(=O)c1ncc[nH]1 (stereo not drawn) [Compound 33]
0.113

Value lookup for PDI D-30; key = CCCCCCCCCCCOC(=O)CCCCCN(CCCCCCCC(=O)OC(CCCCCCCC)CCCCCCCC)CC(O)CCCCNC(=O)c1cncn1C (stereo not drawn) [Compound 38]
0.041

----------
Zeta (mV) overview
# runDescription: Size, polydispersity index and surface charge of mRNA-LNP (Malvern Zetasizer Nano ZS90)
# Type: physicochemical
# assaySetup: surface charge of mRNA-LNP made with the ionizable lipid at its optimal formulation (Table 2)
Express it in mV; write the number only.

Consider the reported Zeta (mV) for these compounds:
{"columns": ["compound", "observable", "val"],
 "data": [
  ["CCCCCCCCCCCOC(=O)CCCCCN(CCCCCCCC(=O)OC(CCCCCCCC)CCCCCCCC)CC(O)CCCCNC(=O)c1[nH]ccc1O (stereo not drawn)", "Zeta (mV)", "−4.55"],
  ["CCCCCCCCCCCOC(=O)CCCCCN(CCCCCCCC(=O)OC(CCCCCCCC)CCCCCCCC)CC(O)CCCCNC(=O)c1c[nH]cn1 (stereo not drawn)", "Zeta (mV)", "−1.50"]
]}

Value lookup for Zeta (mV); key = CCCCCCCCCCCOC(=O)CCCCCN(CCCCCCCC(=O)OC(CCCCCCCC)CCCCCCCC)CC(O)CCCCNC(=O)c1ccc[nH]1 (stereo not drawn)
−7.87

Value lookup for Zeta (mV); key = CCCCCCCCCCCOC(=O)CCCCCN(CCCCCCCC(=O)OC(CCCCCCCC)CCCCCCCC)CC(O)CCCCNC(=O)c1ncc[nH]1 (stereo not drawn)
−8.94
